- measurementNotes: Inhibition of calf thymus DNA polymerase alpha assessed as reduction in [3H]dTTP incorporation using poly(dA)/oligo(dT)18 as template/primer preincubated for 10 mins followed by template/primer addition measured after 60 mins
- Set-up: species or system Bos taurus
Please respond with reported IC50 for every item in the list.
Numbers only, in µM.

Here's what some known entries look like.
CC(C)=CCC/C(C)=C/C[C@@H]1C[C@]2(CC=C(C)C)C(=O)[C@@]3(CC=C(C)C)C(O[C@@H](C(C)(C)O)CC[C@@]13C)C(C(=O)c1ccc(O)c(O)c1)=C2O (stereo partly specified)    5.4
CC(C)=CCC[C@@]1(C)[C@H](C/C=C(\C)C/C=C/C(C)(C)O)C[C@]2(CC=C(C)C)C(=O)[C@@]1(CC=C(C)C)C(=O)C(C(=O)c1ccc(O)c(O)c1)=C2O    8.8
C=C(C)[C@@H](O)CC/C(C)=C/C[C@@H]1C[C@]2(CC=C(C)C)C(=O)[C@@](CC=C(C)C)(C(=O)C(C(=O)c3ccc(O)c(O)c3)=C2O)[C@@]1(C)CCC=C(C)C    6.4
C=C(C)C(O)C[C@@H]1C[C@]2(CC=C(C)C)C(=O)[C@@](CC=C(C)C)(C(=O)C(C(=O)c3ccc(O)c(O)c3)=C2O)[C@@]1(C)CCC=C(C)C (stereo partly specified)    8.6
CC(C)=CCC[C@@]1(C)[C@H](CC=C(C)C)C[C@]2(CC=C(C)C)C(=O)[C@@]1(CC=C(C)C)C(=O)C(C(=O)c1cccc(O)c1)=C2O    6.5
C[C@@]1(CO)[C@H](O)CC[C@@]2(C)[C@H]1CC[C@H]1C[C@@H]3C[C@@]12CC[C@]3(O)CO [APHIDICOLIN]    19.6
CC(C)=CC[C@@H]1C[C@]2(CC=C(C)C)C(=O)[C@@]3(CC=C(C)C)C(O[C@@H](C(C)(C)O)CC[C@@]13C)C(C(=O)c1ccc(O)c(O)c1)=C2O (stereo partly specified)    5.6
CC(C)=CCC/C(C)=C/CC1(CC=C(C)C)C(O)=C(C(=O)c2ccc(O)c(O)c2)C(=O)C2=C1OC(C)(C)C=C2 (stereo unspecified)    7.9
C=C(C)[C@H](O)CC/C(C)=C/C[C@@H]1C[C@]2(CC=C(C)C)C(=O)[C@@](CC=C(C)C)(C(=O)C(C(=O)c3ccc(O)c(O)c3)=C2O)[C@@]1(C)CCC=C(C)C    6.3

[in] What value of IC50 has been recorded for this entry: CC(C)=CCC/C(C)=C/C[C@@H]1C[C@]2(CC=C(C)C)C(=O)[C@@](CC=C(C)C)(C(=O)C(C(=O)c3ccc(O)c(O)c3)=C2O)[C@@]1(C)CCC=C(C)C [OBLONGIFOLIN C]
[out] 5.7

* * *

- systemUnderTest: DNA polymerase lambda (Homo sapiens, UniProt Q9UGP5)
- Sequence (Q9UGP5 whole entry): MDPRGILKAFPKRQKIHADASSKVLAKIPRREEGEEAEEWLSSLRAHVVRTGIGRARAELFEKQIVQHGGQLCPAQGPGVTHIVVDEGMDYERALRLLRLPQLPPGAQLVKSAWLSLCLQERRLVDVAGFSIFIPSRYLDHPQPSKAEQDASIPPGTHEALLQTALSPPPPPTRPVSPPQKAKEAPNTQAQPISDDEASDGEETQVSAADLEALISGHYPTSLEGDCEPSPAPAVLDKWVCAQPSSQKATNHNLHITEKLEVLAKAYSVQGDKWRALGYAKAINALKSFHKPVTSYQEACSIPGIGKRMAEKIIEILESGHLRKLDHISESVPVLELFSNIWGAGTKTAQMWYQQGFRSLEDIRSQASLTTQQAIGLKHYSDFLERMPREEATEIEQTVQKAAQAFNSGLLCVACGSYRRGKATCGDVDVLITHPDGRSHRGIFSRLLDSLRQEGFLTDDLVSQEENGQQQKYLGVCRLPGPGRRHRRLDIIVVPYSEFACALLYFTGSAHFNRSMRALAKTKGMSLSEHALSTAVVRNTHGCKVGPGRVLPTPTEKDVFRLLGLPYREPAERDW
- measurementNotes: Inhibition of recombinant human His-tagged DNA polymerase lambda assessed as reduction in [3H]dTTP incorporation using poly(dA)/oligo(dT)18 as template/primer preincubated for 10 mins followed by template/primer addition measured after 60 mins
observationType: pIC50
Numbers only, as −log10 of the molar value.

C=C(C)C(O)C[C@@H]1C[C@]2(CC=C(C)C)C(=O)[C@@](CC=C(C)C)(C(=O)C(C(=O)c3ccc(O)c(O)c3)=C2O)[C@@]1(C)CCC=C(C)C (stereo partly specified)    5.06
CC(C)=CCC/C(C)=C/C[C@@H]1C[C@]2(CC=C(C)C)C(=O)[C@@]3(CC=C(C)C)C(O[C@@H](C(C)(C)O)CC[C@@]13C)C(C(=O)c1ccc(O)c(O)c1)=C2O (stereo partly specified)    5.16

Can you give me pIC50 for all of these, one by one?
1. C=C(C)[C@@H](O)CC/C(C)=C/C[C@@H]1C[C@]2(CC=C(C)C)C(=O)[C@@](CC=C(C)C)(C(=O)C(C(=O)c3ccc(O)c(O)c3)=C2O)[C@@]1(C)CCC=C(C)C
2. CC(C)=CCC/C(C)=C/CC1(CC=C(C)C)C(O)=C(C(=O)c2ccc(O)c(O)c2)C(=O)C2=C1OC(C)(C)C=C2 (stereo unspecified)
3. CC(C)=CCC/C(C)=C/C[C@@H]1C[C@]2(CC=C(C)C)C(=O)[C@@](CC=C(C)C)(C(=O)C(C(=O)c3ccc(O)c(O)c3)=C2O)[C@@]1(C)CCC=C(C)C

[out]
1. 5.24
2. 5.21
3. 5.28
